List of activity coefficient values.
- Assay comment: activity coefficient (dimensionless); of the first substance listed, at infinite dilution; xn = mol fraction of the nth substance listed
- Measurement setup: 302.5 K; 101 kPa; Liquid; Chromatography; x1 = 0
Observation type: activity coefficient

[[record]]
molecule = "CCCO [propan-1-ol] + CC[n+]1ccccc1.O=S(=O)([N-]S(=O)(=O)C(F)(F)F)C(F)(F)F"
val = 3.56

[[record]]
molecule = "C#CCCCCC [1-heptyne] + CC[n+]1ccccc1.O=S(=O)([N-]S(=O)(=O)C(F)(F)F)C(F)(F)F"
val = 8.41

[[record]]
molecule = "C#CCCCCCC [1-octyne] + CC[n+]1ccccc1.O=S(=O)([N-]S(=O)(=O)C(F)(F)F)C(F)(F)F"
val = 12.9

[[record]]
molecule = "C=CCCCCCCCC [1-decene] + CCCC[n+]1ccccc1.O=S(=O)([N-]S(=O)(=O)C(F)(F)F)C(F)(F)F"
val = 46.7

[[record]]
molecule = "C#CCCCC [1-hexyne] + CC[n+]1ccccc1.O=S(=O)([N-]S(=O)(=O)C(F)(F)F)C(F)(F)F"
val = 5.26

[[record]]
molecule = "CO [methanol] + CC[n+]1ccccc1.O=S(=O)([N-]S(=O)(=O)C(F)(F)F)C(F)(F)F"
val = 1.86

[[record]]
molecule = "CCO [ethanol] + CC[n+]1ccccc1.O=S(=O)([N-]S(=O)(=O)C(F)(F)F)C(F)(F)F"
val = 2.63

[[record]]
molecule = "C#CCCC [1-pentyne] + CC[n+]1ccccc1.O=S(=O)([N-]S(=O)(=O)C(F)(F)F)C(F)(F)F"
val = 3.2

[[record]]
molecule = "C=CCCCCCC [oct-1-ene] + CCCC[n+]1ccccc1.O=S(=O)([N-]S(=O)(=O)C(F)(F)F)C(F)(F)F"
val = 22.3

[[record]]
molecule = "CCO [ethanol] + CCCC[n+]1ccccc1.O=S(=O)([N-]S(=O)(=O)C(F)(F)F)C(F)(F)F"
val = 2.67


---

- Assay comment: activity coefficient (dimensionless); of the first substance listed, at infinite dilution; xn = mol fraction of the nth substance listed
- Measurement setup: 343.3 K; 101 kPa; Liquid; Chromatography; x1 = 0
activity coefficient values by entry
Observation type: activity coefficient

[[record]]
compound = "Cc1cccc(C)c1 [1,3-dimethylbenzene] + CCCCC[n+]1ccccc1.O=S(=O)([N-]S(=O)(=O)C(F)(F)F)C(F)(F)F"
observation_type = "activity coefficient"
val = 1.87

[[record]]
compound = "Cc1ccccc1C [1,2-dimethylbenzene] + CCCCC[n+]1ccccc1.O=S(=O)([N-]S(=O)(=O)C(F)(F)F)C(F)(F)F"
observation_type = "activity coefficient"
val = 1.66

[[record]]
compound = "CCCCCCCCC [nonane] + CCCCC[n+]1ccccc1.O=S(=O)([N-]S(=O)(=O)C(F)(F)F)C(F)(F)F"
observation_type = "activity coefficient"
val = 24.2

[[record]]
compound = "C1CCCCC1 [cyclohexane] + CCCCC[n+]1ccccc1.O=S(=O)([N-]S(=O)(=O)C(F)(F)F)C(F)(F)F"
observation_type = "activity coefficient"
val = 4.66

[[record]]
compound = "Cc1ccccc1 [toluene] + CCCCC[n+]1ccccc1.O=S(=O)([N-]S(=O)(=O)C(F)(F)F)C(F)(F)F"
observation_type = "activity coefficient"
val = 1.36

[[record]]
compound = "CCCCCC [hexane] + CCCCC[n+]1ccccc1.O=S(=O)([N-]S(=O)(=O)C(F)(F)F)C(F)(F)F"
observation_type = "activity coefficient"
val = 5.01

[[record]]
compound = "CC1CCCCC1 [methylcyclohexane] + CCCCC[n+]1ccccc1.O=S(=O)([N-]S(=O)(=O)C(F)(F)F)C(F)(F)F"
observation_type = "activity coefficient"
val = 6.84

[[record]]
compound = "CCCCCCC [heptane] + CCCC[n+]1ccccc1.O=S(=O)([N-]S(=O)(=O)C(F)(F)F)C(F)(F)F"
observation_type = "activity coefficient"
val = 11.4

[[record]]
compound = "CCCCC [pentane] + CCCCC[n+]1ccccc1.O=S(=O)([N-]S(=O)(=O)C(F)(F)F)C(F)(F)F"
observation_type = "activity coefficient"
val = 2.41

[[record]]
compound = "C1CCCCC1 [cyclohexane] + CCCC[n+]1ccccc1.O=S(=O)([N-]S(=O)(=O)C(F)(F)F)C(F)(F)F"
observation_type = "activity coefficient"
val = 5.61

[[record]]
compound = "c1ccccc1 [benzene] + CCCCC[n+]1ccccc1.O=S(=O)([N-]S(=O)(=O)C(F)(F)F)C(F)(F)F"
observation_type = "activity coefficient"
val = 1.03

[[record]]
compound = "CCCO [propan-1-ol] + CCCCC[n+]1ccccc1.O=S(=O)([N-]S(=O)(=O)C(F)(F)F)C(F)(F)F"
observation_type = "activity coefficient"
val = 1.65

[[record]]
compound = "C#CCCCC [1-hexyne] + CCCCC[n+]1ccccc1.O=S(=O)([N-]S(=O)(=O)C(F)(F)F)C(F)(F)F"
observation_type = "activity coefficient"
val = 2.42

[[record]]
compound = "CCCCCC [hexane] + CCCC[n+]1ccccc1.O=S(=O)([N-]S(=O)(=O)C(F)(F)F)C(F)(F)F"
observation_type = "activity coefficient"
val = 5.85

[[record]]
compound = "CCc1ccccc1 [ethylbenzene] + CCCCC[n+]1ccccc1.O=S(=O)([N-]S(=O)(=O)C(F)(F)F)C(F)(F)F"
observation_type = "activity coefficient"
val = 1.99

